Assay read-out Ki on Coagulation factor X (Homo sapiens, UniProt P00742); records merged from the literature.
recorded metric: Ki (nM)

a: O=C(NCC(F)(F)C(=O)Nc1ccc(-n2ccncc2=O)cc1)c1ccc(Cl)s1
b: NCc1ccc(Cl)cc1CNC(=O)[C@@H]1CCCN1C(=O)[C@@H](CCC(=O)N1CCOCC1)NC(=O)Cc1ccccc1
c: NC(=O)c1cccc(CN(C(=O)c2ccc(N=C(N)N)cc2)C2CCN(S(=O)(=O)/C=C/c3ccc(Cl)cc3)C2)c1 (stereo not shown)
Query: Hi! Can you put these in order of Ki, lowest number first? Give the order by naming the labels one after another as requested.
Result: a, c, b

* * *

Recorded Ki for molecules tested on Coagulation factor X (Homo sapiens), drawn from a number of studies.
recorded metric: Ki (nM)

P: CC(C)N1CCC(NC(=O)c2nc3c(CO)cccc3n2CC(=O)Nc2ccc(Cl)cn2)CC1
Q: CONC(=O)c1ccc2c(c1)c(C(=O)NC1CCN(C(C)C)CC1)nn2Cc1cc(-c2ccc(Cl)s2)on1
R: CC(=O)N1CCC(CN(C)C(=O)C[C@@H](NS(=O)(=O)Cc2ccccc2)C(=O)N2CCC[C@H]2C(=O)NCc2cc(Cl)ccc2CN)CC1
Query: Falling order of Ki, please. Answer format: the labels, in the requested order.
Result: Q, P, R

* * *

Reported Ki against Coagulation factor X (Homo sapiens, UniProt P00742), gathered from multiple publications, appears below.
recorded metric: Ki (nM)

The cases that follow already have their Ki on record.
• O=C(Cn1c(C(=O)Nc2ccc(N3CCOCC3=O)cc2)nc2c(C(=O)O)cccc21)Nc1ccc(Cl)cn1 = 40
• CC(C)N1CCC(NC(=O)c2nc3c(C(=O)N4CC(O)C4)cccc3n2Cc2cc(-c3ccc(Cl)s3)on2)CC1 = 8
• N=C(N)c1ccc(N)c(C(=O)N[C@@H](C(=O)NCC2CCC(CN)CC2)c2ccccc2)c1 (mixture of isomers) = 14.1
• CC(C)N1CCC(NC(=O)c2cc(C(C)(C)C)nn2Cc2cc(-c3ccc(Cl)s3)on2)CC1 = 332
• Cc1oc(=O)oc1COC(=O)c1cccc2c1cc(C(=O)NC1CCN(C(C)C)CC1)n2Cc1cc(-c2ccc(Cl)s2)on1 = 1

a: CNC(=O)N(C)c1ccc(C(=O)Nc2ccc(C)cc2C(=O)Nc2ccc(Cl)cn2)c(OCCCN)c1
b: N=C(N)c1cccc(C(=O)NCCC(=O)Nc2ccc(-n3ccncc3=O)cc2)c1
c: CC(C)N1CCC(NC(=O)c2nn(Cc3cc(-c4ccc(Cl)s4)on3)c(-c3cccs3)c2C#N)CC1
d: O=C(Nc1ccc(-c2c[nH]cn2)cc1)c1nn(Cc2cc(-c3ccc(Cl)s3)on2)c2ccccc12
e: NC(N)=Nc1ccc(C(=O)N2CCC(N(Cc3ccc(OCc4ccccc4)cc3)S(=O)(=O)/C=C/c3ccc(Cl)cc3)C2)cc1 (stereo not shown)
Query: Could you please sort these 5 entries by Ki from high to low? Order the labels as requested and give them as your answer.
Result: e, d, b, c, a

* * *

A compilation of Ki values for Coagulation factor X (Homo sapiens) from the published literature.
recorded metric: Ki (µM)

* O=C(CCNC(=O)c1ccc(Cl)s1)Nc1ccc(N2CCOCC2=O)c(C(=O)O)c1 | 30
* O=C(NCCS(=O)(=O)NN1CCN(Cc2ccccc2)CC1)c1ccc(Cl)s1 | 1.1
* CC(C)N1CCC(NC(=O)c2nc(-c3ccccn3)nn2Cc2cc(-c3ccc(Cl)s3)on2)CC1 | 0.1

P: Cc1ncc(CNC(=O)c2ccc(C(=N)N)cc2)c(CO)c1OCc1ccc(C(=N)N)cc1
Q: CC(C)N1CCC(NC(=O)c2cncn2Cc2cc(-c3ccc(Cl)s3)on2)CC1
R: N=C(N)c1cccc(/C=C2/CCCC/C(=C/c3cccc(C(=N)N)c3)C2=O)c1
S: COC(=O)c1cc(C(=O)NC2CCN(C(C)C)CC2)cn1Cc1cc(-c2ccc(Cl)s2)on1
T: N=C(N)c1ccc2[nH]c(-c3nccn3CC(=O)NCCc3ccc(Cl)cc3)nc2c1
Query: Hey, quick one: sort these by Ki, largest value first please. Could you list the labels in the order requested?
Result: P, S, Q, R, T
(P: 3.5 µM, S: 1.44 µM, Q: 0.065 µM, R: 0.00563 µM, T: 0.003 µM)

I: COC(=O)COc1cccc(CN(C(=O)c2ccc(N=C(N)N)cc2)C2CCN(S(=O)(=O)/C=C/c3ccc(Cl)cc3)C2)c1 (stereo not drawn)
II: CC(C)N1CCC(N(Cc2nccs2)S(=O)(=O)CCNC(=O)c2ccc(Cl)s2)CC1
Query: Smaller Ki value? Options are I and II Your answer should be the label of the entry you select.
Result: II

* * *

// note: Ki values for Coagulation factor X (Homo sapiens, UniProt P00742) were reported in different studies
recorded metric: Ki (nM)

Take a look at these entries with their results.
- N=C(N)c1ccc(/C=C2/CCC/C(=C\c3ccc(C(=N)N)cc3)C2=O)cc1: 422
- CC(C)N1CCC(NC(=O)c2cc(C(=O)N3CCSCC3)nn2Cc2cc(-c3ccc(Cl)s3)on2)CC1: 108

I: O=C(NCC1CCN(c2ccncc2)CC1)c1cc(-c2cccs2)nn1Cc1cc(-c2ccc(Cl)s2)on1
II: CC(C)N1CCC(NC(=O)c2nc3c(C(=O)NCCO)cccc3n2Cc2cc(-c3ccc(Cl)s3)on2)CC1
Query: Which value of Ki is numerically greater: that of I or that of II ? # reply format: chosen label
Result: I
(I: 165 nM, II: 0.7 nM)

* * *

pKi: −log10 of the molar value.
# pKi against Coagulation factor X (Homo sapiens), merged from multiple literature sources
recorded metric: pKi

• Cc1cc(CNC(=O)c2cc3c(O)cccc3n2Cc2cccc(C(=N)N)c2)cc(C(F)(F)F)c1 = 7.89
• CN(CC1CCNCC1)C(=O)C[C@@H](NS(=O)(=O)Cc1ccccc1)C(=O)N1CCC[C@H]1C(=O)NCc1cc(Cl)ccc1CN = 8.82
• Cc1ncc(CNc2ccc(-c3ccc(C(=N)N)cc3)cn2)c(CO)c1OCc1ccc(C(=N)N)cc1 = 4.60
• NCc1ccc(Cl)cc1CNC(=O)[C@@H]1CCCN1C(=O)[C@@H](CC(=O)O)NS(=O)(=O)Cc1ccccc1 = 5.88
• CC(C)N1CCC(NC(=O)c2nc3c(C(=O)N4CCCOCC4)cccc3n2CC(=O)Nc2ccc(Cl)cn2)CC1 = 7.98

1: CC(=N)N(C)c1ccc(C(=O)Nc2ccc(Cl)cc2C(=O)Nc2ccc(Cl)cn2)c(OCCCN)c1
2: COC(=O)c1ccc(C(=O)NC2CCN(C(C)C)CC2)n1Cc1cc(-c2ccc(Cl)s2)on1
Query: Between 1 and 2 , whose recorded pKi is greater? Please indicate the selected item by its label.
Result: 1

* * *

// read-out Ki, gathered for Coagulation factor X (Homo sapiens, UniProt P00742) from published studies
recorded metric: Ki (nM)

Please review the following examples before continuing.
* O=C(CCNC(=O)c1ccc(Cl)cc1)Nc1ccc(-n2ccc(=O)cc2)cc1 | 4000
* Cc1cc(-c2ccccc2)c(O)c(-c2cc3cc(C(=N)N)ccc3[nH]2)c1 | 298
* COc1ccc2ccc(S(=O)(=O)N(Cc3ccccc3)C3CCN(C(=O)c4ccc(N=C(N)N)cc4)C3)cc2c1 (stereo not drawn) | 21000
* O=C(NC[C@@H](NCC(F)F)C(=O)Nc1ccc(N2CCOCC2=O)c(C(F)(F)F)c1)c1ccc(Cl)s1 | 59
* CCOC(=O)OC(C)OC(=O)c1cccc2c1nc(C(=O)NC1CCN(C(C)C)CC1)n2CC(=O)Nc1ccc(Cl)cn1 (stereo not drawn) | 12.5
* O=C(NCC1CCN(c2ccncc2)CC1)c1nccn1Cc1cc(-c2ccc(Cl)s2)on1 | 640
* N=C(N)NOCCNC(=O)CN1CCC[C@H](NS(=O)(=O)c2ccc(-c3ccc4ccccc4c3)cc2)C1=O | 360
* CC(C)N1CCC(NC(=O)c2cc3nc(C(=O)O)ccc3n2Cc2cc(-c3ccc(Cl)s3)on2)CC1 | 10

1: O=C(c1nn(Cc2cc(-c3ccc(Cl)s3)on2)c2ccccc12)N1CCC(N2CCCC2=O)CC1
2: NC(N)=Nc1ccc(C(=O)N(Cc2ccccc2)C2CCN(S(=O)(=O)/C=C/c3ccc(Cl)cc3)C2)cc1 (stereo not drawn)
3: CC(C)N1CCC(NC(=O)c2nn(Cc3cc(-c4ccc(Cl)s4)on3)c3ccc(C(=O)NCCN4CCOCC4)cc23)CC1
Query: Sort entries by Ki from minimum to maximum value. Form entry: ranked labels (order as requested).
Result: 3, 1, 2
(3: 46 nM, 1: 210 nM, 2: 1600 nM)

P: CC(C)N1CCC(NS(=O)(=O)CCNC(=O)c2ccc(Cl)s2)CC1
Q: CC(C)N1CCC(NC(=O)c2nc3cc(C(=O)N4CC(O)C4)ccc3n2Cc2cc(-c3ccc(Cl)s3)on2)CC1
Query: Given P and given Q , which shows the smaller recorded Ki? # reply format: chosen label
Result: P
